Reported viability at 28.5 h, 10 µM values for the following molecules.
# method: in vitro
# experimental-conditions: human, hela cells, % viability
observable: viability at 28.5 h, 10 µM (%)

- NC(=O)c1ccc(-n2cc(-c3ccc(Cl)cc3)nn2)cc1: 93.4
- Cc1c(C(=O)O)sc(S(=O)(=O)N2CCN(C(=O)c3ccc(F)cc3)CC2)c1C(=O)O: 107
- CCOC(=O)c1[nH]c2c([N+](=O)[O-])cccc2c1O: 88.1
- O=C(Nc1cc(N2CCNCC2)ncn1)c1ccccc1 [CBK004215T]: 94.3
- CN(C)CCN(Cc1cccnc1)C(=O)Cc1ccc2c(c1)CCC2: 109
- O=C(NCCCN1CCOCC1)c1cc2cc([N+](=O)[O-])ccc2oc1=O: 90.9
- CC(C)(C)c1csc(NC(=O)C2CC(=O)N(Cc3cccs3)C2)n1 (stereo not drawn): 109
- O=C(COc1ccc(C2CCCCC2)cc1)Nc1cccc(-c2nc3ncccc3o2)c1: 90.9
- CC(=O)Nc1ccc(S(=O)(=O)Nc2ccc(S(=O)(=O)Nc3ccc(C)c(C)c3)cc2)cc1: 101
- CC(C)C(=O)NCCN1CCOCC1: 115
- CC1CCc2nc(NC(=O)C3CN(S(=O)(=O)c4ccc(F)cc4)C3)sc2C1 (stereo not drawn): 110
- COc1c(S(=O)(=O)N2CCN(Cc3ccc4c(c3)OCO4)CC2)ccc(Cl)c1Cl: 91.8
- Cc1cc(OCC(=O)Nc2nn(Cc3ccccc3Cl)cc2Cl)ccc1[N+](=O)[O-]: 100
- COc1ccc(C(=O)CC(SCC(NC(C)=O)C(=O)O)c2ccc(Cl)cc2)cc1OC (stereo not drawn): 88.4
- O=C(c1ccco1)N1CCC2(CCCNC2)C1 (stereo not drawn) [CBK153233C]: 93.8
- CN1CCN(CC(=O)N2c3ccccc3C(C)(c3ccc(Cl)cc3)CC2(C)C)CC1 (stereo not drawn): 88.1
- Cc1nnnn1-c1ccc(CC(=O)N2CCc3sccc3C2c2ccco2)cc1 (stereo not drawn): 88.2
- O=C1Nc2ccc(/C=C/c3ccccc3)cc2C(=O)N2CC[C@H](NC(=O)N3CCOCC3)[C@@H]12: 98.1

----------
# method: in vitro
# experimental-conditions: human, hela cells, % viability
observable: viability at 28.5 h, 10 µM (%)

- Cc1c[nH]c(CN(C)C(=O)c2cccc(NC(=O)C3CCCC3)c2)n1 [CBK307282]: 91.4
- Cc1ccc2c(c1)cc(C)c1nn(CC(=O)NC3CC3)c(=O)n12 [CBK283873]: 99.2
- Clc1ccc(Cl)c(-c2ccc(CNCc3cccnc3)o2)c1 [CBK269720C]: 103
- CC(C)NC(=O)CN(CCO)Cc1cc(Br)ccc1F [CBK304944]: 90.7
- Cc1[nH]c2ccc(F)cc2c1CC(=O)N(C)CCN(C)C [CBK282726]: 84.1
- CCCC(NC(=O)Nc1ccnn1CC(C)C)c1nccn1C (centres unmarked) [CBK307444]: 92.7
- CC(=O)N1CCc2sccc2C1c1ccc(NC(=O)c2cccc(F)c2)cc1 (centres unmarked) [CBK286466]: 83.8
- CN(CCc1ccncc1)C(=O)CCc1cc(F)ccc1F [CBK304876]: 90.6
- Nc1ncc(-c2cccc(CO)c2)nc1N1CCOCC1 [CBK063406]: 97.6
- COc1ccc(CN(Cc2ccc(NC(C)=O)cc2)[C@@H]2COC[C@H]2c2ccc(F)cc2)cc1 [CBK286488]: 105
- Cc1ccc(NC(=O)c2ccc3ccccc3n2)c(C)n1 [CBK200293]: 83.2
- O=C1CCCN1CCCNC(=O)C1(c2ccccc2)COc2ccccc21 (centres unmarked) [CBK017653]: 92.3
- COc1ccc(N2CCN(c3nc(NCCO)nc(OC)n3)CC2)cc1 [CBK265478]: 103
- FC(F)(F)c1cc(-c2cn3ccnc3c(N3CCOCC3)n2)cc(C(F)(F)F)c1 [CBK066396]: 93.4
- Cc1cnccc1N1CCN(C(=O)CCCOc2ccccc2)CC1 [CBK304677]: 94.8
- Cc1cccc(-c2nc3ccc(NC(=O)CCC(=O)O)cc3o2)c1 [CBK269773]: 95.1
- CCCc1ccc(S(=O)(=O)Nc2ccc(C(=O)OC)cc2)cc1 [CBK028682]: 99.5
- COc1ccc(-c2csc(NC(=O)C(C)C)c2C(=O)O)cc1 [CBK286622]: 83.1
- Cc1cc(C(F)F)n2nc(C(=O)NCc3ccccc3F)nc2n1 [CBK266228]: 97.2
- CCOC(=O)Cc1csc(NS(=O)(=O)c2cc(C)c(Cl)cc2Cl)n1 [CBK012872]: 91.3

----------
# method: in vitro
# experimental-conditions: human, hela cells, % viability
Reported viability at 28.5 h, 10 µM values for the following molecules.
observable: viability at 28.5 h, 10 µM (%)

- COC(=O)[C@@H]1CN(C(=O)Nc2ccccc2)CCN1C(=O)C1CCCCC1: 91
- Cc1noc(NS(=O)(=O)c2ccc(N/C=C\C(=O)c3cccnc3)cc2)c1C: 102
- COc1ccc(Oc2nccc(N3CCCN(Cc4ccc(C(F)(F)F)cc4)CC3)n2)cc1OC: 98.2
- O=C(NCc1nc2ccccc2[nH]1)c1ccc2[nH]ccc2c1: 89
- COc1cncc(-c2cc(Nc3cccc(OC)c3OC)ncn2)c1: 97.8
- Cn1nccc1C(=O)N1CCC2(C/C=C/COc3ccccc3C(=O)NC[C@@H](Cc3ccccc3)NC2=O)CC1: 99.8
- COc1nc2ccn(CCNC(=O)C(C)C)c(=O)c2cc1C#N: 95.8
- O=C(NCCN1CCCC1)c1ccc(N2CCN(C(=O)c3ccccc3C(F)(F)F)CC2)nn1: 105
- CS(=O)(=O)N(CC(=O)NC1CCCCC1)c1cccc2ccccc12: 83.9
- O=C(O)[C@@H]1CCCN1C(=O)CCn1nnc2ccccc2c1=O: 83.6
- Cc1cc(C)n(-c2ccc3nnc(CCC(=O)O)n3n2)n1: 97
- O=C1NC2(CCN(C(=O)CCc3ccc(-c4ccccc4)o3)CC2)Nc2ccccc21: 106
- O=C(O)C1(Oc2ccc3ncccc3c2)CCN(CC2CCOC2)CC1 (stereo not shown): 93.2
- CC(C)(C)c1cc(CCC(c2cc(C(C)(C)C)c(O)c(C(C)(C)C)c2)c2cc(C(C)(C)C)c(O)c(C(C)(C)C)c2)cc(C(C)(C)C)c1O: 92.9
- CC(=O)N1CCC2(CCCC[C@H]3CN(C(=O)C(C)C)CC[C@@H]3NC(=O)CNC2=O)CC1: 102
- O=C(NCc1n[nH]c(=O)c2ccccc12)Nc1ccc(F)cc1: 94.2
- O=C(CCN1CCOCC1)NNC(=O)Nc1cccc(C(F)(F)F)c1: 104
- O=C(Cc1csc(-c2ccc(Cl)cc2)n1)Nc1ccccn1: 85.8
- Fc1cc(Br)ccc1-c1cn(-c2ccc(Oc3ccccc3)cc2)nn1: 89.5
- Cc1cc(Br)c(NC(=O)COc2ccc(/C=C(\C#N)C(N)=S)cc2)cc1C: 97.5
- CCOC(=O)c1cnn(C2CCCN(Cc3cn(C)nc3C)C2)c1 (stereo not shown): 89.2
- CCc1c(Cc2[nH]c(C)c(C(C)=O)c2C)[nH]c(C(=O)O)c1C: 91.3
- Cc1cccnc1NC(=O)C(C)n1cc([N+](=O)[O-])cn1 (stereo not shown): 104
- CC(C)(Oc1ccc(Cl)cc1)C(=O)O/N=C(\N)c1ccc(I)cc1: 97.2
- Cc1onc(-c2ccccc2Cl)c1C(=O)Nc1ccc(S(=O)(=O)NCC2CCCO2)cc1 (stereo not shown): 88.9
- CC(=O)Nc1ccc(N2CC(C(=O)O)CC2=O)cc1 (stereo not shown): 87.1
- CC(C)(C)NS(=O)(=O)c1ccc(NC(=O)c2cc(-c3ccccn3)nc3c(Cl)cccc23)cc1: 99.6
- COc1ccc(Cl)cc1S(=O)(=O)N(C)CC(=O)O: 97.1
- Cc1cc(Br)c(O)c(C(=O)N(C)CC(=O)Nc2cc(C)on2)c1: 94.8
- COc1ccc(NC(=O)c2cnc3sc(C)cn3c2=O)c(OC)c1: 87
- O=C(NC(=S)CC1C=NCS1)c1ccccc1 (stereo not shown): 107
- Cc1cc(-c2ccc(=O)n(CCNC(=O)C3CC3)n2)c(C)o1: 93.2
- CC(=O)OCc1nc2cc(F)c(F)cc2[nH]1: 92.9
- CN(C)c1ncc(-c2cccc(Cl)c2)c(C2CCCN2C(=O)CC2CCCC2)n1 (stereo not shown): 120
- O=C(Nc1ccccc1C(=O)O)c1cc(S(=O)(=O)Nc2cccc(F)c2)ccc1Cl: 84.7
- COc1ccc(-n2c(SCC(N)=O)nc3sc4c(c3c2=O)CC(C)(C)OC4)cc1: 101
- O=C1CCCc2c1nc(-c1ccccc1Cl)n2O: 89.5

----------
# method: in vitro
# experimental-conditions: human, hela cells, % viability
observable: viability at 28.5 h, 10 µM (%)

* NC1=C2NN(c3ccc(Cl)cc3Cl)N=C2N(c2ccccc2)N1 | 98.1
* CC(C)CCNC(=O)N(CCC#N)C1CCCCC1 | 91.6
* CCCc1cc(C(N)=O)c(NC(=O)c2sc3ccccc3c2Cl)s1 | 103
* Cc1cc2ncn(CC(=O)NC3Cc4ccccc4C3)c2cc1C | 97.3
* O=C(COc1ccccc1)c1cn(CC(=O)N2CCc3ccccc32)c2ccccc12 | 93.5
* COC(=O)c1cc(=O)c2ccccc2o1 | 91.8
* O=C1NC2(CCc3ccccc31)CCN(Cc1cccnc1)C2 (stereo not drawn) | 96.5
* COc1ccc(CCN(C(C)=O)C2CC(=O)N(c3ccccc3)C2=O)cc1OC (stereo not drawn) | 89.5
* O=C(O)CNC(=O)c1ccc(S(=O)(=O)N2CCOCC2)cc1 | 112
* N=C(N)SCc1ncccc1O [CBK278318C] | 102
* COc1cccc(N(CC(=O)Nc2ccc(C)c(C)c2)S(=O)(=O)c2ccc(C)cc2)c1 | 103
* CC(C)CN1CC2(CCN(C(=O)OCc3ccccc3)CC2)c2ccccc21 [CBK022626C] | 106
* O=c1c2c(n3c(S)nnc3n1Cc1ccco1)-c1ccccc1CC21CCCCC1 | 94.7
* Cc1ccc(C2(CN3CCN(Cc4ncc[nH]4)CC3)CC2)cc1 | 95.9
* Cc1ccc(NCc2nc3ccccc3n2Cc2ccccc2)cc1C | 98.4
* O=C(Nc1cccnc1)N1CCN(c2ccc(F)cc2)CC1 | 92.7
* Nc1nc(SCc2cccc([N+](=O)[O-])c2)n[nH]1 | 105
* O=C(C1CCCN(c2ccc3nncn3n2)C1)N1CCOCC1 (stereo not drawn) | 104
* O=C(Cc1c[nH]c2ccccc12)N1CCC2(CCCN(C(=O)c3ccc(OC(F)(F)F)cc3)C2)C1 (stereo not drawn) | 97.8
* O=C1CCCN1CCCNc1nccnc1-c1cccnc1 | 110
* CC(C)CC(CO)Nc1ncnc2ccc(S(C)(=O)=O)cc12 (stereo not drawn) | 107
* O=C(Oc1cccc2cnccc12)c1ccccc1 [CBK022889C] | 105
* CCN(CC)C(=O)c1ccc(NS(=O)(=O)c2ccc(-c3ccccc3)cc2)cc1 | 97.5
* Cc1cc(NC(=O)CC2CCCCC2)nc2c1c(=O)oc1ccccc12 | 90.6
* Cc1nc(N2CCOCC2)[nH]c(=O)c1CCC(=O)Nc1ccccc1F | 97.7
* COc1ccc(CNC(=O)N2CCN(c3cc(C(F)(F)F)ccn3)CC2)cc1OC | 82.5
* CN1C[C@@H](NC(=O)Nc2ccccc2)C[C@H]1c1nc(-c2ccccc2)no1 | 124
* CC(C)(C)c1ccc(OCC(=O)Nc2ccc(S(=O)(=O)N3CCc4ccccc43)cc2)cc1 | 100
* Cc1oc2c(c1C(=O)NC(C)c1ccccn1)CCCC2 (stereo not drawn) | 109
* COc1cccc(NC(=O)CCN2C(=O)c3ccccc3S2(=O)=O)c1 | 92.3
* O=C1CCCN1CCC(=O)N1CCCC1c1nc2ccccc2[nH]1 (stereo not drawn) | 84.2
* Cc1ccn2cc(-c3ccc4c(c3)CCN4S(C)(=O)=O)cc2c1 | 83.8
* O=C(O)CCN1CCn2c3c(c4cc(C5CCCCC5)ccc42)CCCC31 (stereo not drawn) | 91.4
* OCCN(Cc1cccnc1)Cc1cccn1-c1ccccc1F | 92.2
* CC(=O)Nc1nc(OCC(F)(F)F)cnc1-c1cccc(C(=O)N(C)C)c1 | 96
* COc1ccc(CCNc2ncnc3[nH]cnc23)cc1OC | 110
* O=C(N[C@H]1CCN2C(=O)c3cc(-c4ccsc4)ccc3NC(=O)[C@@H]2C1)c1cccs1 | 103
* Cc1c(C(=O)NCCOc2ccc(-c3ccccc3)cc2)sc2nc[nH]c(=O)c12 | 92.2
* O=C(COc1ccc(N2CC(C(=O)O)CC2=O)cc1)Nc1cccc(C(F)(F)F)c1 (stereo not drawn) | 100
